Provide the recorded Cmax for the entries that follow.
Protocol summary: Quantification of nifurtimox and metabolites in rat plasma after a single high dose (200 mg/kg)
Type: in vivo, Wistar rats
Condition: female, Wistar, rat, plasma, po, 200 mg/kg; read-out: Cmax, female animals
Just so you know, I need the unit written after the number.

Task: Return Cmax for the following compound: CC(=O)NC(CSc1ccc(=O)n(N2CCS(=O)(=O)CC2C)c1)C(=O)O (stereo not shown)
Output: 0.186 µM

Task: Provide measured Cmax value, entry: CC1CS(=O)(=O)CCN1n1cc(SCC(N)C(=O)O)ccc1=O (stereo not shown)
Output: 0.568 µM

Task: Output Cmax of CC1CS(=O)(=O)CCN1/N=C/C(=O)CCC#N (stereo not shown)
Output: 2.05 µM

Task: Supply reported Cmax belonging to this compound: CC1CS(=O)(=O)CCN1N (stereo not shown)
Output: 3.92 µM

Task: For CC1CS(=O)(=O)CCN1/N=C/C(CCC(=O)O)=N\O (stereo not shown) , write its Cmax.
Output: 0.447 µM

Task: Give the reported value of Cmax for this record: CC1CS(=O)(=O)CCN1/N=C/C(=O)CCC(=O)O (stereo not shown)
Output: 0.547 µM

Task: Supply measured Cmax of CC1CS(=O)(=O)CCN1/N=C/c1ccc([N+](=O)[O-])o1 (stereo not shown) [Nifurtimox, reference compound] in your reply.
Output: 18.3 µM
